Where do the numbers come from? From the supplement of paper PMC10567573.

B1: PCDHGA10 (parent)
chain: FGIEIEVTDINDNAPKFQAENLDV

Variants of: B1
Assay: protein stability index of a GFP-peptide fusion (GPS, HEK-293T) (PSI 1-6); higher = more stable;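 note: lentivirally expressed fusions sorted by FACS into six bins by GFP to DsRed ratio, PSI derived from sequencing read proportions per bin multiplied by bin number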
Conditions: c terminus: a fixed tail appended
// protein stability index lookup, one value per entry
Number only, please.

Answered examples (3):
[[record]]
biopolymer_sequence = "FGIEIEVTDIFDNAPKFQAENLDV [N11F]"
assay_result = 1.33

[[record]]
biopolymer_sequence = "FGSEIEVTDINDNAPKFQAENLDV [I3S]"
assay_result = 5.2

[[record]]
biopolymer_sequence = "FGIEIEVTDINPNAPKFQAENLDV [D12P]"
assay_result = 2.42


// sample FGIEIEVTDENDNAPKFQAENLDV [I10E] , its protein stability index was 4.23

Briefly, protein stability index measured for FGIEIEVTDINDNAPKFQAENLDP [V24P] : 3.4

The variant listed as FGIEIEVTMINDNAPKFQAENLDV [D9M] shows protein stability index equal to 1.96

Short answer for FGIEIEVTDINDNAPCFQAENLDV [K16C] : protein stability index was 2.45

FGIEIEVCDINDNAPKFQAENLDV [T8C] yielded protein stability index of 2.48

Entry FGIEIEVTDIEDNAPKFQAENLDV [N11E] ; protein stability index = 2.94
